Measured values drawn from the RNAGym collection of RNA variant scans (doi:10.1126/science.aae0568) for this set.

Quick reference for yeast fitness among some variants
B1: tRNA (parent)
chain: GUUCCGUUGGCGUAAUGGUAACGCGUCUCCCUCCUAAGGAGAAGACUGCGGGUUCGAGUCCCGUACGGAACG

- Variants of: B1
- ASSAY EXPLANATION: yeast fitness relative to wild type (ratio to wild type); higher = fitter; tRNA-Arg(CCU), competitive growth, 37 C, YPD
Variants at the floor of the assay were thinned out.

Worked cases, yeast fitness given:
{"VARIANT LABEL": "U3C G10A G23A C62G G67A", "READOUT TYPE": "yeast fitness", "VALUE REPORTED": "≤ 0.5"}
{"VARIANT LABEL": "C33A A36C A43U C46G C62G A69U", "READOUT TYPE": "yeast fitness", "VALUE REPORTED": "≤ 0.5"}
{"VARIANT LABEL": "G9A C27G C29A C49G", "READOUT TYPE": "yeast fitness", "VALUE REPORTED": "≤ 0.5"}
{"VARIANT LABEL": "U3A G9A A14C C55G", "READOUT TYPE": "yeast fitness", "VALUE REPORTED": "≤ 0.5"}
{"VARIANT LABEL": "U16A G38A C62A A69U", "READOUT TYPE": "yeast fitness", "VALUE REPORTED": "≤ 0.5"}
{"VARIANT LABEL": "G18C G38A A43U A45G A57G U59C", "READOUT TYPE": "yeast fitness", "VALUE REPORTED": "≤ 0.5"}

Entry C24G C30G G52A C60A ; yeast fitness = ≤ 0.5

The variant C4G U13A C30G showed yeast fitness equal to ≤ 0.5

Sure, the documented yeast fitness for C29G C49G C55A is ≤ 0.5
